Hey, just so you know, these numbers are from the supplement of paper PMC11451515.

Tested on: P12-Ichikawa
assay summary: cell viability relative to DMSO control; higher = less cytotoxic
experimental conditions: HPLM + 10% dialyzed FBS; 48 h; 0.000781 µM
experimental endpoint: cell viability
Write your answer as a measured quantity: the number, then the unit.

- compound: "COC(=O)N1CC2(CC2)C[C@H](C(=O)NO)[C@H]1C(=O)N1CCN(c2ccccc2)CC1"
  target desc: "P12-Ichikawa"
  cell viability: "122%"
- compound: "CC(NCCc1ccc(O)cc1)C(O)c1ccc(O)cc1 (stereo not given)"
  target desc: "P12-Ichikawa"
  cell viability: "106%"
- compound: "CCOC1=CC=CC=C1N\\2C(=O)C3=C(C=CC=C3)\\N=C2C(C)N4CCN(CC4)C(=O)COC5=CC=C(Cl)C=C5 (stereo not given)"
  target desc: "P12-Ichikawa"
  cell viability: "121%"

Sure, the documented cell viability for O=C(O)CC/C=C\CC[C@@H]1[C@@H](N2CCCCC2)[C@@H](O)C[C@@H]1OCc1ccc(-c2ccccc2)cc1 is 124%

Looking up COc1cc(O)c2c(c1)C(=O)c1cc(C)cc(O)c1C2=O , I see its cell viability listed as 124%

---

Here, each record is paired with measured cell viability data.
Tested on: NOMO1
assay summary: cell viability relative to DMSO control; higher = less cytotoxic
experimental conditions: HPLM + 10% dialyzed FBS; 48 h; 0.00702 µM
Write the answer as a number in %, unit excluded.

Worked examples, 6 compounds total:
- molecule: "CCN(c1ccccc1)c1cc(NC)[n+](C)c(C)n1"
  quantity unit: "%"
  cell viability: 109
- molecule: "C[C@@H](O)[C@@H]1NC(=O)[C@H](CCCCN)NC(=O)[C@@H](Cc2c[nH]c3ccccc23)NC(=O)[C@H](Cc2ccccc2)NC(=O)[C@@H](NC(=O)[C@H](N)Cc2ccccc2)CSSC[C@@H](C(=O)N[C@H](CO)[C@@H](C)O)NC1=O"
  quantity unit: "%"
  cell viability: 90
- molecule: "N[S+](=O)([O-])OC[C@@H]1C[C@@H](n2ccc3c(N[C@H]4CCc5ccccc54)ncnc32)C[C@@H]1O"
  quantity unit: "%"
  cell viability: 114
- molecule: "N#C/C(C(=O)c1ccc(Cl)cc1Cl)=C1/NC(=O)c2ccc(Cl)cc2N1"
  quantity unit: "%"
  cell viability: 122
- molecule: "COc1cccc2c1[C@]13CCN(CC4CC4)[C@H](C2)[C@]1(OC)CCC(=O)C3"
  quantity unit: "%"
  cell viability: 127
- molecule: "CC/1=C(\\O)C(=O)\\C=C2/C1=C/C=C3\\[C@@]2(C)CC[C@@]4(C)[C@@H]5C[C@@](C)(CC[C@]5(C)CC[C@]34C)C(O)=O"
  quantity unit: "%"
  cell viability: 97.5

--- query ---
Reported cell viability for CO/N=C(/C(=O)N[C@@H]1C(=O)N2C(C(=O)O)=C(CSC(=O)c3ccco3)CS[C@H]12)c1csc(N)n1 was 116

---

Property: cell viability; scope: individual compounds
System: P12-Ichikawa
assay summary: cell viability relative to DMSO control; higher = less cytotoxic
experimental conditions: RPMI 5 mM glucose + 10% dialyzed FBS; 48 h; 0.569 µM
Express your answer in %, writing the number without its unit.

- compound: "CC(C)OC1=CC=C2C(=C1)O\\C=C(/C2=O)C3=CC=CC=C3"
  recorded result: 122

cell viability in this record for CN(C)CCN1C(=O)c2cccc3cc(N)cc(c23)C1=O : 120

Reported cell viability ( C[S+](=O)([O-])c1ccc(Oc2cc(F)cc(C#N)c2)c2c1[C@H](O)C(F)(F)C2 ) = 104

Query Cc1ncc([N+](=O)[O-])n1CC(C)O (stereo not drawn) yields cell viability of 117
